Where do these numbers come from? They come from patent US20190315806A1.

List of MIC A. baumannii ATCC 19606 values.
System: Acinetobacter baumannii ATCC 19606
Assay type: cell-based
RUN CONDITIONS: ATCC 19606
Where a SMILES comes first, the peptide text is derived from it. Bridges are numbered along the chain shown (N, C = ends). [ ]: non-standard residue; d: D form. The star is where a group is joined. Heptanoyl = CCCCCCC(=O)*; Octanoyl = CCCCCCCC(=O)*; X5 = CCCCCCCC(=O)CC(=O)*; Dab = NCC[C@H](N)C(=O)O
Give just the number in µg/mL; leave the unit off.

Solved cases below.
CCCCCCCC(=O)N[C@@H](CCN)C(=O)N[C@H](C(=O)N[C@@H](CCN)C(=O)N[C@H]1CCNC(=O)[C@H]([C@@H](C)O)NC(=O)[C@H](CCN)NC(=O)[C@H](CCN)NC(=O)[C@H](C(C)C)NC(=O)[C@@H](CC(C)C)NC(=O)[C@H](CCN)NC1=O)[C@@H](C)O [Compound 80] (Octanoyl-[Dab]T[Dab][Dab][Dab][dL]V[Dab][Dab]T; lactam 4-C) | 1
CCCCCCC(=O)N[C@@H](CCN)C(=O)N[C@H](C(=O)N[C@@H](CCN)C(=O)N[C@H]1CCNC(=O)[C@H]([C@@H](C)O)NC(=O)[C@H](CCN)NC(=O)[C@H](CCN)NC(=O)[C@H]([C@@H](C)CC)NC(=O)[C@@H](CC(C)C)NC(=O)[C@H](CCN)NC1=O)[C@@H](C)O [Compound 83] (Heptanoyl-[Dab]T[Dab][Dab][Dab][dL]I[Dab][Dab]T; lactam 4-C) | 1

Then this compound:
Short answer for CCCCCCCC(=O)CC(=O)N[C@@H](CCN)C(=O)N[C@H](C(=O)N[C@@H](CCN)C(=O)N[C@H]1CCNC(=O)[C@H]([C@@H](C)O)NC(=O)[C@H](CCN)NC(=O)[C@H](CCN)NC(=O)[C@H](CC(C)C)NC(=O)[C@@H](Cc2ccccc2)NC(=O)[C@H](CCN)NC1=O)[C@@H](C)O [Compound 7] (X5-[Dab]T[Dab][Dab][Dab][dF]L[Dab][Dab]T; lactam 4-C) : MIC A. baumannii ATCC 19606 was 2

* * *

Tested on: Acinetobacter baumannii ATCC 19606
Type: cell-based
RUN CONDITIONS: ATCC 19606
Where a SMILES comes first, the peptide text is derived from it. Bridges are numbered along the chain shown (N, C = ends). [ ]: non-standard residue; d: D form. The star is where a group is joined. Heptanoyl(6-Me) = CC(C)CCCCC(=O)*; X2 = CC[C@H](C)CCCCC(=O)*; dDab = NCC[C@@H](N)C(=O)O; Heptanoyl = CCCCCCC(=O)*; Octanoyl = CCCCCCCC(=O)*; Dab = NCC[C@H](N)C(=O)O
ASSAY READOUT: MIC A. baumannii ATCC 19606 (mg/L)
Record the value in mg/L, omitting the unit from your answer.

These solved cases illustrate the format of a correct answer.
CC(C)CCCCC(=O)N[C@@H](CCN)C(=O)N[C@H](C(=O)N[C@@H](CCN)C(=O)N[C@H]1CCNC(=O)[C@H]([C@@H](C)O)NC(=O)[C@H](CCN)NC(=O)[C@H](CCN)NC(=O)[C@H]([C@@H](C)O)NC(=O)[C@@H](CC(C)C)NC(=O)[C@H](CCN)NC1=O)[C@@H](C)O [Compound 103] ({Heptanoyl(6-Me)}-[Dab]T[Dab][Dab][Dab][dL]T[Dab][Dab]T; lactam 4-C) | 1
CC[C@H](C)CCCCC(=O)N[C@@H](CCN)C(=O)N[C@H](C(=O)N[C@H](CO)C(=O)N[C@H]1CCNC(=O)[C@H]([C@@H](C)O)NC(=O)[C@H](CCN)NC(=O)[C@H](CCN)NC(=O)[C@H]([C@@H](C)O)NC(=O)[C@@H](Cc2ccccc2)NC(=O)[C@H](CCN)NC1=O)[C@@H](C)O [Compound 115] (X2-[Dab]T[dS][Dab][Dab][dF]T[Dab][Dab]T; lactam 4-C) | 0.12
CCCCCCCC(=O)N[C@@H](CCN)C(=O)N[C@H](C(=O)N[C@@H](CCN)C(=O)N[C@H]1CCNC(=O)[C@H](CC(C)C)NC(=O)[C@H](CCN)NC(=O)[C@H](CCN)NC(=O)[C@H](CC(C)C)NC(=O)[C@@H](Cc2ccccc2)NC(=O)[C@H](CCN)NC1=O)[C@@H](C)O [Compound 129] (Octanoyl-[Dab]T[Dab][Dab][Dab][dF]L[Dab][Dab]L; lactam 4-C) | 4

Value of measured MIC A. baumannii ATCC 19606 for the entry CC[C@H](C)CCCCC(=O)N[C@@H](CCN)C(=O)N[C@H](C(=O)N[C@H](CCN)C(=O)N[C@H]1CCNC(=O)[C@H]([C@@H](C)O)NC(=O)[C@H](CCN)NC(=O)[C@H](CCN)NC(=O)[C@H]([C@@H](C)O)NC(=O)[C@@H](CC(C)C)NC(=O)[C@H](CCN)NC1=O)[C@@H](C)O [Compound 30] (X2-[Dab]T[dDab][Dab][Dab][dL]T[Dab][Dab]T; lactam 4-C) : 1

Short answer for CCCCCCC(=O)N[C@@H](CCN)C(=O)N[C@H](C(=O)N[C@@H](CCN)C(=O)N[C@H]1CCNC(=O)[C@H]([C@@H](C)O)NC(=O)[C@H](CCN)NC(=O)[C@H](CCN)NC(=O)[C@H](CC(C)C)NC(=O)[C@@H](CC(C)C)NC(=O)[C@H](CCN)NC1=O)[C@@H](C)O [Compound 82] (Heptanoyl-[Dab]T[Dab][Dab][Dab][dL]L[Dab][Dab]T; lactam 4-C) : MIC A. baumannii ATCC 19606 was 2
